# System Name: F508del (Homo sapiens, UniProt P13569, DEL508-508)
# Construct: expressed in transfected cells
# Sequence (P13569 with tags, fused parts or gaps DEL508-508): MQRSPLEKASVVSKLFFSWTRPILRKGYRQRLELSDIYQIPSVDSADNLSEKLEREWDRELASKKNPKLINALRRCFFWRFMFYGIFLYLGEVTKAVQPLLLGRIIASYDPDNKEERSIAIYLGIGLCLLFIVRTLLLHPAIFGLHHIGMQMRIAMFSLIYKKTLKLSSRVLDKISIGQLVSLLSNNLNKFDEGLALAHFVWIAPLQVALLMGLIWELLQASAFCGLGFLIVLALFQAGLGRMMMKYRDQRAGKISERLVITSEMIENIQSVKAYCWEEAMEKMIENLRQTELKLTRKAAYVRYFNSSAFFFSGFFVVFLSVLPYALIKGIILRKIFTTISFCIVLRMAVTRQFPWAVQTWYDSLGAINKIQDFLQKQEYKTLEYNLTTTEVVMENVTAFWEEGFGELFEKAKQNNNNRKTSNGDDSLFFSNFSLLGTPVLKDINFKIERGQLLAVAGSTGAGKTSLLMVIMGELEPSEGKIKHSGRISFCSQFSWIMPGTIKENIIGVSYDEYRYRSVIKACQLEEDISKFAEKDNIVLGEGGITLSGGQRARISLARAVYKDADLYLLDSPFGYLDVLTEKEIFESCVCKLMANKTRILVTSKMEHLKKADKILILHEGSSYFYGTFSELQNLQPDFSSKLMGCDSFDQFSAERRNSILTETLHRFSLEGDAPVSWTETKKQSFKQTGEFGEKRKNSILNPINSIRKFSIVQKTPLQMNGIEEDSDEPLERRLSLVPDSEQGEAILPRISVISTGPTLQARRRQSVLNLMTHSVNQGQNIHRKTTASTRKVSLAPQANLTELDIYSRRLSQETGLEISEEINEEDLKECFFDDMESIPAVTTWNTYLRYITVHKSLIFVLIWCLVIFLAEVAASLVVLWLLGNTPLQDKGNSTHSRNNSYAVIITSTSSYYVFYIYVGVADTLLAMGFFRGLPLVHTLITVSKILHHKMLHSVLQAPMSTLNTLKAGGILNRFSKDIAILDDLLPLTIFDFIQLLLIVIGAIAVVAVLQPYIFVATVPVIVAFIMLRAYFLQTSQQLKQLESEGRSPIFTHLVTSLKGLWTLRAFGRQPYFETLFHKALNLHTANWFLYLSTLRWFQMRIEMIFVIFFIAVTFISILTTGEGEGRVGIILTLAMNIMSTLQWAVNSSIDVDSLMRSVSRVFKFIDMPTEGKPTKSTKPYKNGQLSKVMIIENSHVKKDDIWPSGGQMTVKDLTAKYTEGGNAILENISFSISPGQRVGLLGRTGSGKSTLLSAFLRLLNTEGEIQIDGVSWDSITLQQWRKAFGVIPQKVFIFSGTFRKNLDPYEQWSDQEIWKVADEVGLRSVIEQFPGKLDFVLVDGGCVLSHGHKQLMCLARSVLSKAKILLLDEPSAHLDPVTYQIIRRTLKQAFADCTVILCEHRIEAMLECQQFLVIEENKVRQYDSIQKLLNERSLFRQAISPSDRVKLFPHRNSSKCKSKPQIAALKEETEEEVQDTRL
# Measurement Protocol: Protocol 2: FRET membrane potential optical assay (VIPR), identification of correction compounds
# Format: cell-based
# Assay Conditions: Table 3; compounds of Table 1 as modulators of CFTR activity; protocol not stated
Measured Metric: EC30

Cc1c(Cn2nc(C(C)(C)C)cc2C(=O)NS(=O)(=O)c2cccc3ccn(C)c23)cccc1C(F)(F)F [Compound 276]	+++ (“+++” means <3 uM)
CCCC1CCCN(c2nc(-c3ccc(OC(C)C)nc3)ccc2C(=O)NS(=O)(=O)c2cccc(N)n2)C1 (centres unmarked) [Compound 522]	+++ (“+++” means <3 uM)
CCc1ccc2c(c1)cc(C(=O)NS(=O)(=O)c1cccc(N)n1)n2Cc1c(C)cc(C)cc1C [Compound 179]	+++ (“+++” means <3 uM)
Cc1cc(C)c(CN2Cc3ccccc3C2C(=O)NS(=O)(=O)c2cccc(N)c2)c(C)c1 (centres unmarked) [Compound 90]	+++ (“+++” means <3 uM)
COc1ncccc1-c1ccc(C(=O)NS(=O)(=O)c2cccc(N)n2)c(N2CC(C)CC2(C)C)n1 (centres unmarked) [Compound 526]	+++ (“+++” means <3 uM)

**Q:** Field: EC30 (F508del (Homo sapiens, UniProt P13569, DEL508-508)). Entry: COc1c(C)cccc1-c1ccc(C(=O)NS(=O)(=O)c2cccc(N)n2)c(Oc2c(C)cc(C)cc2C)n1 [Compound 477]
**A:** +++ (“+++” means <3 uM)

**Q:** Quick check: EC30 on F508del (Homo sapiens, UniProt P13569, DEL508-508), item Cc1cc(C)c(Oc2nc(C(C)(C)C)ncc2C(=O)NS(=O)(=O)c2cccc(N)c2)c(C)c1 [Compound 68] ?
**A:** +++ (“+++” means <3 uM)

**Q:** # get_value(readout= EC30, system= F508del (Homo sapiens, UniProt P13569, DEL508-508)) for CC(C)COc1cc(F)cc(-c2ccc(C(=O)NS(=O)(=O)c3cccc(N)n3)c(N3CC(C)CC3C)n2)c1 (centres unmarked) [Compound 587]
**A:** +++ (“+++” means <3 uM)

**Q:** For F508del (Homo sapiens, UniProt P13569, DEL508-508), provide EC30 of Cc1cc(C)c(Oc2nc(-c3ccc(F)c(F)c3)ccc2C(=O)NS(=O)(=O)c2cccc(N)n2)c(C)c1 [Compound 725] please.
**A:** +++ (“+++” means <3 uM)

**Q:** What EC30 appears in the records for this compound with F508del (Homo sapiens, UniProt P13569, DEL508-508)? Cc1ccccc1-c1ccc(C(=O)NS(=O)(=O)c2cccc(N)n2)c(N2CC(C)CC2(C)C)n1 (centres unmarked) [Compound 761]
**A:** +++ (“+++” means <3 uM)

**Q:** Find the measured EC30: item CC(C)COc1cc(F)cc(-c2ccc(C(=O)NS(=O)(=O)c3cccc(N)n3)c(N3C(C)CCC3(C)C)n2)c1 (centres unmarked) [Compound 496] , target or system F508del (Homo sapiens, UniProt P13569, DEL508-508).
**A:** +++ (“+++” means <3 uM)

**Q:** Can you look up EC30 on F508del (Homo sapiens, UniProt P13569, DEL508-508) for CC1CCN(c2nc(C(C)(C)C)ccc2C(=O)NS(=O)(=O)c2cccc(N)n2)CC1 [Compound 794] ?
**A:** +++ (“+++” means <3 uM)

**Q:** What reported EC30 corresponds to CC(C)(C)c1ccc(-c2nc(C(C)(C)C)ccc2C(=O)NS(=O)(=O)c2cccc(N)c2)cc1 [Compound 252] on F508del (Homo sapiens, UniProt P13569, DEL508-508)?
**A:** +++ (“+++” means <3 uM)

====

Each record here notes measured EC30.
# System Name: F508del (Homo sapiens, UniProt P13569, DEL508-508)
# Construct: expressed in transfected cells
# Measurement Protocol: Protocol 2: FRET membrane potential optical assay (VIPR), identification of correction compounds
# Assay type: cell-based
# Assay Conditions: F508del CFTR modulator activity; compounds of Table 1; read-out: EC30

Examples from the recorded data:
CC1CN(c2ncc(-c3ccc(C(F)(F)F)cc3)cc2C(=O)NS(=O)(=O)c2cccc(N)n2)C(C)(C)C1 (stereo not shown)	< 3000 nM
CC1CN(c2ncccc2C(=O)NS(=O)(=O)c2cccc(N3CC[C@H](F)C3)n2)C(C)(C)C1 (stereo partly shown)	3000 to 10000 nM
COc1ccc(-c2ccc(C(=O)NS(=O)(=O)N3CC[C@H](N)C3)c(N3C[C@@H](C)CC3(C)C)n2)cc1	3000 to 10000 nM
COc1ccc2c(c1)CCN(c1cccc(S(=O)(=O)NC(=O)c3cccnc3N3CC(C)CC3(C)C)n1)C2 (stereo not shown)	< 3000 nM
Cc1ccc(F)cc1-c1ccc(C(=O)NS(=O)(=O)N2CC[C@H](N)C2)c(N2C[C@@H](C)CC2(C)C)n1	< 3000 nM
Cc1c(F)cccc1-c1ccc(C(=O)NS(=O)(=O)c2ccc[nH]c2=O)c(N2C[C@@H](C)CC2(C)C)n1	< 3000 nM

# ---- query compound ----
**Q:** For the compound COc1cc(Nc2cccc(S(=O)(=O)NC(=O)c3cccnc3N3CC(C)CC3(C)C)n2)cc(OC)c1 (stereo not shown) , what EC30 is on record?
**A:** < 3000 nM

====

Overview of recorded EC30 for various compounds
# System Name: F508del (Homo sapiens, UniProt P13569, DEL508-508)
# Construct: expressed in transfected cells
# Measurement Protocol: Protocol 2: FRET membrane potential optical assay (VIPR), identification of correction compounds
# Type: cell-based
# Assay Conditions: F508del CFTR modulator activity; compounds of Table 1; read-out: EC30

CC1CN(c2ncccc2C(=O)NS(=O)(=O)c2cccc(Nc3cccc(OC(C)C)c3)n2)C(C)(C)C1 (stereo not shown)	< 3000 nM

**Q:** Give the measured EC30 of CC1CN(c2ncccc2C(=O)NS(=O)(=O)c2cccc(Oc3ccc4[nH]ccc4c3)n2)C(C)(C)C1 (stereo not shown) .
**A:** < 3000 nM

**Q:** Quick one: EC30 of C[C@@H]1CN(c2nc(-c3ccc(C(F)F)cc3)ccc2C(=O)NS(=O)(=O)c2cccnc2N)C(C)(C)C1 ?
**A:** < 3000 nM

**Q:** Look at this compound and give its reported EC30. Cc1ccc(CCNc2cccc(S(=O)(=O)NC(=O)c3cccnc3N3CC(C)CC3(C)C)n2)cc1 (stereo not shown)
**A:** < 3000 nM

====

# System Name: F508del (Homo sapiens, UniProt P13569, DEL508-508)
# Construct: expressed in transfected cells
# Measurement Protocol: Protocol 1: membrane potential optical assay (FLIPR III, voltage sensing dye), identification of potentiator compounds
# Format: cell-based
# Assay Conditions: Table 3, compounds of Table 1
Measured Metric: EC30

CCN(CC)c1ccc(-c2ccc(C(=O)NS(=O)(=O)c3cccc(N)n3)c(N3CC(C)CC3(C)C)n2)cn1 (stereo not shown) [Compound 796]	+++ (“+++” means <3 uM)
CC(=O)Nc1ncccc1S(=O)(=O)NC(=O)c1ccc(-c2ccc(OC(C)C)nc2)nc1N1C[C@@H](C)CC1(C)C [Compound 1976]	+++ (“+++” means <3 uM)

====

// reported EC30 per item
# System Name: F508del (Homo sapiens, UniProt P13569, DEL508-508)
# Construct: expressed in transfected cells
# Measurement Protocol: Protocol 2: FRET membrane potential optical assay (VIPR), identification of correction compounds
# Assay type: cell-based
# Assay Conditions: F508del CFTR modulator activity; compounds of Table 1; read-out: EC30

Solved cases (3 shown):
Cc1cc(-c2ccc(C(=O)NS(=O)(=O)c3cccc(N)n3)c(N3C[C@@H](C)CC3(C)C)n2)cc(OC(C)C)n1	< 3 µM
CC1CN(c2ncccc2C(=O)NS(=O)(=O)c2cccc(NCC3CCCO3)n2)C(C)(C)C1 (stereo not shown)	> 10 µM
CC(C)COc1ccn(-c2ccc(C(=O)NS(=O)(=O)c3cccnc3N)c(N3C[C@@H](C)CC3(C)C)n2)n1	< 3 µM

**Q:** # returns recorded EC30 (system: F508del (Homo sapiens, UniProt P13569, DEL508-508)) for CC(C)COc1cc(F)cc(-c2nc(N3C[C@@H](C)CC3(C)C)c(C(=O)NS(=O)(=O)c3cccc(N)n3)cc2I)c1
**A:** < 3 µM

====

# System Name: F508del (Homo sapiens, UniProt P13569, DEL508-508)
# Construct: expressed in transfected cells
# Measurement Protocol: Protocol 1: membrane potential optical assay (FLIPR III, voltage sensing dye), identification of potentiator compounds
# Format: cell-based
# Assay Conditions: Table 3, compounds of Table 1
Measured Metric: EC30

Known results for compounds:
Cc1ccccc1-c1cnc(N2CC(C)CC2(C)C)c(C(=O)NS(=O)(=O)c2cccc(N)n2)c1 (stereo not shown)	+++ (“+++” means <3 uM)
CC1CN(c2ncc(-c3cc(OC(C)C)cc(C(F)(F)F)c3)cc2C(=O)NS(=O)(=O)c2cccc(N)n2)C(C)(C)C1 (stereo not shown)	+++ (“+++” means <3 uM)
CCOc1cccc2c1CN(Cc1c(C)cc(C)cc1C)C2(C)C(=O)NS(=O)(=O)c1ccc(N)nc1 (stereo not shown)	+++ (“+++” means <3 uM)
CC(C)COc1cnn(-c2ccc(C(=O)NS(=O)(=O)c3cccnc3N)c(N3C[C@@H](C)CC3(C)C)n2)c1	+++ (“+++” means <3 uM)
CC(C)(C)c1ccc(C(=O)NS(=O)(=O)c2cccc(N)n2)c(OC2CC3CCC2C3)n1 (stereo not shown)	+++ (“+++” means <3 uM)

Pending compound:
**Q:** Give the measured EC30 of Cc1cc(C)cc(-c2ccc(C(=O)NS(=O)(=O)c3cccc(N)n3)c(N3C[C@@H](C)CC3(C)C)n2)c1 .
**A:** +++ (“+++” means <3 uM)
